Target: Estrogen receptor (Homo sapiens, UniProt P03372)
Sequence (P03372 whole entry): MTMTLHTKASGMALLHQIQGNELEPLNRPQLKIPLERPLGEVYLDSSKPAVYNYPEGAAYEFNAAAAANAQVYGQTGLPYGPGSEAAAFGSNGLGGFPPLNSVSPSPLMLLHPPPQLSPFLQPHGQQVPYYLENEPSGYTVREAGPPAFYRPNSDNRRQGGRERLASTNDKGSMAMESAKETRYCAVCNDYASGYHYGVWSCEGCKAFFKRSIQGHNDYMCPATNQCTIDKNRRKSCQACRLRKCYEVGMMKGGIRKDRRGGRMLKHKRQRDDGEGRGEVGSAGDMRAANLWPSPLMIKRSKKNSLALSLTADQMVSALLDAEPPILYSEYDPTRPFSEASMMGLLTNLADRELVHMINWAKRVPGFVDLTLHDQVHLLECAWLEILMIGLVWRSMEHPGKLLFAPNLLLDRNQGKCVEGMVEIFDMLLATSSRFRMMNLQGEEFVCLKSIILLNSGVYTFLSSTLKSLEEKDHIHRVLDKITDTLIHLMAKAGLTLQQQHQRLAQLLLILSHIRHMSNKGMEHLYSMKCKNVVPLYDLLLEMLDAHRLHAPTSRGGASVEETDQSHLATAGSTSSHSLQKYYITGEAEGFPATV
test.readout: pEC50
Just the number, please; pEC50 means minus log10 of the concentration in mol/L.

Use the examples below as a reference point.
CCC(CC)(c1ccc(O)cc1)c1ccc(O)cc1; 6.74
CCC(CC)(c1ccc(O)c(C)c1)c1ccc(O)c(C)c1; 7.55
CCCCC(CCCC)(c1ccc(O)cc1)c1ccc(O)cc1; 6.22

Fill in: pEC50 on Estrogen receptor (Homo sapiens, UniProt P03372), entry CCCCC(CCCC)(c1ccc(O)c(C)c1)c1ccc(O)c(C)c1
7.06

Fill in: pEC50 on Estrogen receptor (Homo sapiens, UniProt P03372), entry CCCC(CCC)(c1ccc(O)c(C)c1)c1ccc(OCC(=O)NC)c(C)c1
6.98

Fill in: pEC50 on Estrogen receptor (Homo sapiens, UniProt P03372), entry CCCC(CCC)(c1ccc(O)cc1)c1ccc(O)cc1
7.19

---

IC50, Estrogen receptor (Homo sapiens, UniProt P03372): measured values

Use the examples below as a reference point.
CCCC(CCC)(c1ccc(O)c(C)c1)c1ccc(NC)c(C)c1; 7.5 nM
CCCC(CCC)(c1ccc(O)c(C)c1)c1ccc(OCCC(C)C)c(C)c1; 160 nM
CCc1cc(C(CC)(CC)c2ccc(O)c(CC)c2)ccc1O; 280 nM
CCC(CC)(c1ccc(O)c(C)c1)c1ccc(O)c(C)c1; 1.4 nM
CCCC(CCC)(c1ccc(O)c(C)c1)c1ccc(O)c(C)c1; 1.3 to 3.2 nM
CCCC(CCC)(c1ccc(N)c(C)c1)c1ccc(O)c(C)c1; 1.7 nM
CCCC(CCC)(c1ccc(O)c(C)c1)c1ccc(OCCN(C)C)c(C)c1; 52 nM
CCCC(CCC)(c1ccc(O)c(C)c1)c1ccc(OCC(=O)NC)c(C)c1; 43 nM

Fill in: IC50 on Estrogen receptor (Homo sapiens, UniProt P03372), entry CCCCC(CCCC)(c1ccc(O)cc1)c1ccc(O)cc1
100 nM

Fill in: IC50 on Estrogen receptor (Homo sapiens, UniProt P03372), entry CCCC(CCC)(c1ccc(O)c(C)c1)c1ccc(OCC(=O)OC(C)C)c(C)c1
90 nM

Fill in: IC50 on Estrogen receptor (Homo sapiens, UniProt P03372), entry Oc1ccc(Cc2ccc(O)cc2)cc1
1430 nM

Fill in: IC50 on Estrogen receptor (Homo sapiens, UniProt P03372), entry CCCCC(CCCC)(c1ccc(O)c(C)c1)c1ccc(O)c(C)c1
26 nM

Fill in: IC50 on Estrogen receptor (Homo sapiens, UniProt P03372), entry CCCC(CCC)(c1ccc(O)c(C)c1)c1ccc(OCC(=O)N(C)C)c(C)c1
99 nM

Fill in: IC50 on Estrogen receptor (Homo sapiens, UniProt P03372), entry CCCC(CCC)(c1ccc(O)c(CC)c1)c1ccc(O)c(CC)c1
1280 nM

Fill in: IC50 on Estrogen receptor (Homo sapiens, UniProt P03372), entry CCCC(CCC)(c1ccc(O)c(C)c1)c1ccc(/C=C/C(=O)O)c(C)c1
37 nM

Fill in: IC50 on Estrogen receptor (Homo sapiens, UniProt P03372), entry CCCC(CCC)(c1ccc(O)c(C)c1)c1ccc(/C=C/C(=O)OCC)c(C)c1
303 nM

Fill in: IC50 on Estrogen receptor (Homo sapiens, UniProt P03372), entry CCCC(CCC)(c1ccc(O)c(C)c1)c1ccc(OCC(=O)OCC)c(C)c1
22 nM

Fill in: IC50 on Estrogen receptor (Homo sapiens, UniProt P03372), entry CCC(CC)(c1ccc(O)cc1)c1ccc(O)cc1
24 nM

Fill in: IC50 on Estrogen receptor (Homo sapiens, UniProt P03372), entry CCCC(CCC)(c1ccc(O)c(C)c1)c1ccc(NC(C)=O)c(C)c1
354 nM

Fill in: IC50 on Estrogen receptor (Homo sapiens, UniProt P03372), entry CCCC(CCC)(c1ccc(O)c(C)c1)c1ccc(N(C)C)c(C)c1
77 nM

Fill in: IC50 on Estrogen receptor (Homo sapiens, UniProt P03372), entry CCCC(CCC)(c1ccc(O)cc1)c1ccc(O)cc1
5.9 nM

Fill in: IC50 on Estrogen receptor (Homo sapiens, UniProt P03372), entry CCC(=C(c1ccc(O)cc1)c1ccc(O)cc1)c1ccccc1
0.06 nM

---

pEC50, Estrogen receptor (Homo sapiens, UniProt P03372): measured values
Just the number, please; pEC50 means minus log10 of the concentration in mol/L.

Use the examples below as a reference point.
CCCC(CCC)(c1ccc(O)c(C)c1)c1ccc(OCC(=O)N(C)C)c(C)c1; 6.69
CCC(=C(c1ccc(O)cc1)c1ccc(O)cc1)c1ccccc1; 9.00
CCCC(CCC)(c1ccc(N)c(C)c1)c1ccc(O)c(C)c1; 8.05

Fill in: pEC50 on Estrogen receptor (Homo sapiens, UniProt P03372), entry CCCC(CCC)(c1ccc(O)c(C)c1)c1ccc(OCC(=O)OC(C)C)c(C)c1
6.94

Fill in: pEC50 on Estrogen receptor (Homo sapiens, UniProt P03372), entry CCCC(CCC)(c1ccc(O)c(C)c1)c1ccc(OCC(=O)OCC)c(C)c1
7.03

Fill in: pEC50 on Estrogen receptor (Homo sapiens, UniProt P03372), entry CCCC(CCC)(c1ccc(O)c(C)c1)c1ccc(NC)c(C)c1
6.26

Fill in: pEC50 on Estrogen receptor (Homo sapiens, UniProt P03372), entry CCCC(CCC)(c1ccc(O)c(C)c1)c1ccc(N(C)C)c(C)c1
7.10

---

Molecular target: Estrogen receptor (Homo sapiens, UniProt P03372)
Listed here are compounds together with their documented EC50.

Use the examples below as a reference point.
CCCC(CCC)(c1ccc(O)c(C)c1)c1ccc(NC(C)=O)c(C)c1; > 10 µM
Cc1cc(Cc2ccc(O)c(C)c2)ccc1O; > 10 µM

Turning now to a further record.
Return EC50 (reported value) for this compound: Oc1ccc(Cc2ccc(O)cc2)cc1
> 10 µM
